Reference for the values: patent US6346373B1

This section lists IC50 readings for UniProt:P43235.
Sequence (P43235 115-329): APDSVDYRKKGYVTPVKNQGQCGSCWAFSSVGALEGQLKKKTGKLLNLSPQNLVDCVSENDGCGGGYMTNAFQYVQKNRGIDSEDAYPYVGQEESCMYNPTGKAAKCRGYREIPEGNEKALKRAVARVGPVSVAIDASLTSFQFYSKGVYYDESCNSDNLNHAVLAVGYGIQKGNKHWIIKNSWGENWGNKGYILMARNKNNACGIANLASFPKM
A number alone suffices; assume nM.

## Input Give UniProt:P43235 IC50 for the following molecule: CC(C)CCNC(=O)[C@H](CC(C)C)NC(=O)[C@H]1O[C@@H]1C(=O)O [Inhibitor E64c]
## Output 41

## Input Give UniProt:P43235 IC50 for the following molecule: CC(C)C[C@H](NC(=O)C1OC1C(=O)O)C(=O)NCCCCNC(=N)N (some centres unmarked) [Inhibitor E64]
## Output 30
